- test: soluble on expression in E. coli; label from the status in PepcDB or PDB records
reported-endpoint: soluble on expression in E. coli

MGSDKIHHHHHHMKMTDPLYGTFEIEPVLAELIQSPLVSRLAHVHQGGSSYLVNPLWDLSRLDHSIGVMLFIRKFGGSLEEQIAGLLHDVSHTAFSHVVDYALDFEEEDYHEQIFEDFVKTSTIPAILEKYGYSFEGIFDDISKWKILEQEAPELCADRIDYTLQDLYRHRKISLAEVEEFLQALVMVDGRLYLANIALAEWFVAQYYSEVIDYFYDPLNVYSYEILAEAMRIAFQQETITTADLRLTDTELLAKLNANSDAREKIQLLASAHLEENEADFTYHHKKKMRLINPSILVDGRLIPADELSEKVRKMNDWASERSKHGIYIKATKKSKQ    not soluble
MSQVLTTYETPVLPEWVDYNGHLRDAFYLLVFSYATDALMAHIGLDSQNRDASGHSLFTLECHLNFLHEVKEGARVEVRTQLLGHDRKRLHIHHALYLPGSGQALALSEQMLLHVSLDGPRSAPFEGEVLARVEALAEAHRALPVPEGVGRVIGLPPVR    not soluble

---

- test: soluble on expression in E. coli; label from the status in PepcDB or PDB records
reported-endpoint: soluble on expression in E. coli

SATETQIRIGVMGCADIARKVSRAIHLAPNATISGVASRSLEKAKAFATANNYPESTKIHGSYESLLEDPEIDALYVPLPTSLHVEWAIKAAEKGKHILLEKPVAMNVTEFDKIVDACEANGVQIMDGTMWVHNPRTALLKEFLSDSERFGQLKTVQSCFSFAGDEDFLKNDIRVKPGLDGLGALGDAGWYAIRATLLANNFELPKTVTAFPGAVLNEAGVILSCGASLSWEDGRTATIYCSFLANLTMEITAIGTKGTLRVHDFIIPYKETEASFTTSTKAWFNDLVTAWVSPPSEHTVKTELPQEACMVREFARLVGEIKNNGAKPDGYWPSISRKTQLVVDAVKESVDKNYQQISLSGR    soluble
MKIMAICGSGLGSSFMVEMNIKKVLKKLNIDAEVEHSDLSSATPGAADLFVMAKDIAASASVPESQLVVINNIIDINELETQLRAWFAKQ    not soluble
MSKSPDAFRTISEVAEWLGVQAHVLRFWESKFNQVKPVKRAGGRRYYRPADMQLLGGIKKLLHDDGMTIKGVQKLLREQGVAHVAEQSQD    not soluble
APAEPAAPKSGEAETPPKHPGVLKVEAILEKVQGLEQAVDSFEGKKTDKKYLMIEEYLTKELLALDSVDPEGRADVRQARRDGVRKVQTILEKLEQKA    soluble
MGDYENVLMVKPKVFVYRIPPIGTSGHKAADWNLDSPAWTGRMRLVAIGKRLEMRLEDGETCDLYAKCPIDAHPGNAIEAVSDSSRYFVIRLQNDNGQQAFVGCGFQERGDAFDFNVTLQDHFRYIERSAELEKQDLSAGPSLDLAFKEGQTISINIGKKDKSAVSRPRPAPGASTGGLVPLLPPPPGAGSMIRNSRPSTTTTTASSSLSSAFAAPPPAPSSSTSTTATSGNLLDF    not soluble
MRLNHNSYEIFDFMRSRSAIGVLSKIIITIPPINLRMIIGVMGPEGSYSERAAKLWARKNGLRGAEFHYFADIEDAFLAAVGGKTDISVVPVENSIEGSVGVTLDLLLENEAVIIGEIVVKIEHCLLSKGEPEKIRVILSHPQGLAQCRHFLKTHFPEAELRSTGSTSHAARLAGEFEEMAAIASPEAAERYGLKILLSNVQDRKENHTRFIVVRGGEKVLSGKIKGKADSGEKLNTVFGRNAEHKLCSETETGTENSSSYAFKTSLIVYLEKDRPGALYEPLGFFAKRGINLTKIESRPSKKELGDYYFYIDLEGNISDVLIKDALEDIKSKASKKSRSSTLKVLGSYPAFKK    not soluble

Please find the next sequence below.
[ask] Could you please provide reported soluble on expression in E. coli for `MSLDDLQSIRESREIRIAMSGQYSPFSFANEQNQIVGFDASISEALAQRLGVKVSIVTTPFDGIIAGLLAKKYDAIIASMTITPERLRAVDFVGPYYHAGRTIVVKEDSPINSLADLKDVTVGVTLGDAHDKWARARGNLKVKTYKGLPEMLVDLEAGRLDALVMDSVPVLVAVKETGQKVRIITPPDSDGGVEGMGIALRKNNPELKAAMQQALNDMLADGSYEKISMKWIGKDIREGHHHHHH` ? Thanks!
[reply] soluble

---

- test: soluble on expression in E. coli; label from the status in PepcDB or PDB records
reported-endpoint: soluble on expression in E. coli

MGHHHHHHSHMNKILIAAASSGTGKTTVTLGIMHALKKRGLRVQPFKVGPDYIDTNYHQAITGVASINLDSFLIDDDAMLAALFEKHGQSADISVIEGVMGLFDGLGIDRDNSSTSFIAKCTKTPVILVVDGKAISTSAAAIVDGFNRFDPELTIAGVIINRVASENHFSLIKGAIERYTDVPVLGYLPKNAAVALPERHLGLVPKEEMTELETKWEVLGDLIAEHVDLDRLLAISKTG    not soluble
GIQVRDCMIPRNEMIACELQTDIEVLKTTFIDTGLSKIIIYRQNIDDVVGYIHSSEMFRGQDWQKRINTTVFVPESMYANKLMRLLMQRKKSIAIVIDELGGTAGMVTLEDLVEEIFGDIEDEH    not soluble

---

- test: soluble on expression in E. coli; label from the status in PepcDB or PDB records
reported-endpoint: soluble on expression in E. coli

MPRPSLRRGEETSGARSLHEIAPPAEKAVRKPLNLLPFRKDTPMTKDSYFHKSRAGVAGAPLFVLLHGTGGDENQFFDFGARLLPQATILSPVGDVSEHGAARFFRRTGEGVYDMVDLERATGKMADFIKANREHYQAGPVIGLGFSNGANILANVLIEQPELFDAAVLMHPLIPFEPKISPAKPTRRVLITAGERDPICPVQLTKALEESLKAQGGTVETVWHPGGHEIRSGEIDAVRGFLAAYGG    soluble
APLATRQGKRPSKNLKARCSRKALHVNFKDMGWDDWIIAPLEYEAFHCEGLCEFPLRSHLEPTNHAVIQTLMNSMDPESTPPTCCVPTRLSPISILFIDSANNVVYKQYEDMVVESCGCR    soluble

---

- test: soluble on expression in E. coli; label from the status in PepcDB or PDB records
reported-endpoint: soluble on expression in E. coli

MSLDCFAPAVLGMPAFDRHATWQAMHATTHFIGRVGVAQVGLCAMNLALWDIQLKIEEVPLWRHLGPVKDRVKAYNTDGGWLTWTTAEVIDDMHHIINRGFDAVKMKLGRSDPMEDFQRVRAVRQAIGDDIKLMVDVNTVWDLETAIQWGKRLEELNVEWLEEPLHPFDVRSHAALAKAIRTPIAVGETVYTVYGFREYIAQEAAGVLQADVTKLSGIEEWLEVAAIGQTHGLQVIPHTNVQQNVHVQLAAATTNTPMIECCYESLFEIWENPVRVVDGFYTLPDVPGINGKLTETVLEKFRVSEGHHHHHH    soluble
MFILSKIADLVRIPPDQFHRDTISAITHQLNNKFANKIIPNVGLCITIYDLLTVEEGQLKPGDGSSYINVTFRAVVFKPFLGEIVTGWISKCTAEGIKVSLLGIFDDIFIPQNMLFEGCYYTPEESAWIWPMDEETKLYFDVNEKIRFRIEREVFVDVKPKSPKERELEERAQLENEIEGKNEETPQNEKPPAYALLGSCQTDGMGLVSWWEHHHHHH    soluble
GMTSTSITAVEYQSKRLESRLLKETREYVIALPEGYAQSLEAYPVVYLLDGEDQFDHMASLLQFLSQGTMPQIPKVIIVGIHNTNRMRDYTPTHTLVLPSGNKGNPQYQHTGGAGRFLDFIEKELAPSIESQLRTNGINVLVGHSFGGLVAMEALRTDRPLFSAYLALDTSLWFDSPHYLTLLEERVVKGDFKQKQLFMAIANNPLSPGFGVSSYHKDLNLAFADKLTKLAPKGLGFMAKYYPEETHQSVSHIGLYDGIRHLFKDFAIDIYSDSFSKQQVIDQYGVLSERFGHKVTPSQQYLEQLIQYSDRQQLTERKQMLEGLRQHFAKD    soluble
MNEIHQPLARRVWRSNVDEEMARMAECLKRFPLIAFDTEYPGIIFRTYFDSSSDECYRAMKGNVENTKLIQCGFTLFNAKGEIGGVWEINFSNFGDPSDTRNELSIEFLRRHGLDLQKIRDEGVDMFGYGFFPKLMTVFRSQKHVEFVTFQGAYDFAYFLSILNHGKLPETHGEFATEVVKVFGQVYDTKVMAGFCEGLGEHLGLSKLAQLLQITRVGRAHHAGSDSLMTALVFIKLKHVYEDSRFARGLIYGIGKSNLVAAPAPAPVPEPTLPLMCQQNVASYPVFHNGYVQNYEQPQLVSYDPSGAPWAFCNATGTYVQLTHLPASTFAYPSQTPSATVDYLGPVPNYYNNNACYVVE    soluble
TWILTADSPSLLGTVDVVTRYLFEQRCYVTEHHSFDDRLAQRFFIRVEFRAGDGFDEASFRAGLAERVAPFGMRTELTAPGYRSQVAIMVSKADHCLNDLLYRQRIGQLPMDVVAVISNHPDLEPLARWHGIPYHHFPLDPNDKPAQEARVWQVLEESGAELVILARYMQVLSPELCRRLDGWAINIHHSLLPGFKGAKPYHQAYQKGVKLVGATAHYINNDLDEGPIIAQGVETVDHAHYPEDLIAKGRDIECLTLARAVGYHIERRVFLNANRTVVL    not soluble

[ask] Could you please provide reported soluble on expression in E. coli for `TMIAIKPTKLKDFSSLMQLDVQEEQIGFAKPFEQAYQKRNKSEVFFTIYSDYLTVGYLIIDKGFAQHAPFAMRHELGLNYLMIDRRFQRQGIGAEALKKLFVYAYTIDPESTSLCVTVPNSHQGALDFFLACGFTNTEKAIYGEQEKEWLMRHPL` ? Thanks!
[reply] not soluble

[ask] Could you please provide reported soluble on expression in E. coli for `MSVSPFFNPKRDSQLGEMMRDMGGMQRRLMPISGTFNPMTDDSEIMNSNDKFAVNLNVSNFKPEELKVNLEGRQLSIQGEHDVENEHGASRKSFSRMILLPEDVDITSVATNLSNDGKLCIEAPKLEGVCGRSVPVKEASMDHHHIE` ? Thanks!
[reply] not soluble

[ask] Could you please provide reported soluble on expression in E. coli for `MSLSNRAGEILIVEDSPTQAEHLKHILEETGYQTEHVRNGREAVRFLSLTRPDLIISDVLMPEMDGYALCRWLKGQPDLRTIPVILLTILSDPRDVVRSLECGADDFITKPCKDVVLASHVKRLLSGVKRTEERYSRESITLAFGNEGHHHHHH` ? Thanks!
[reply] soluble
